# assay_remarks: Biodistribution after oral administration
# Type: in vivo, Sprague-Dawley Rats
# conditions_used: male, Sprague-Dawley, rat; Brain; 8 hours; 75 mg/kg oral; read-out: Mean plasma/tissue concentration
endpoint: concentration at 8 h (ng/g)
Numbers only, in ng/g.

**Query** // returns reported concentration at 8 h for input COc1ccccc1-c1nc(CNC(=O)c2ccccc2OC(F)F)n[nH]1
**Result** 33.6

====

# assay_remarks: Biodistribution after oral administration
# Type: in vivo, Sprague-Dawley Rats
# conditions_used: male, Sprague-Dawley, rat; Plasma; 2 hours; 75 mg/kg oral; read-out: Mean plasma/tissue concentration
endpoint: concentration at 2 h (ng/mL)
Numbers only, in ng/mL.

**Query** Reported concentration at 2 h, molecule COc1ccccc1-c1nc(CNC(=O)c2ccccc2OC(F)F)n[nH]1 : ____
**Result** 1980

====

# assay_remarks: Biodistribution after oral administration
# Type: in vivo, Sprague-Dawley Rats
# conditions_used: male, Sprague-Dawley, rat; Pancreas; 0.25 hours; 75 mg/kg oral; read-out: Ratio (tissue to plasma)
endpoint: Kp at 0.25 h
Answers are plain numbers.

**Query** Would you mind telling me what Kp at 0.25 h value was observed for COc1ccccc1-c1nc(CNC(=O)c2ccccc2OC(F)F)n[nH]1 ?
**Result** 0.95

====

# assay_remarks: Biodistribution after oral administration
# Assay type: in vivo, Sprague-Dawley Rats
# conditions_used: male, Sprague-Dawley, rat; Heart; 0.25 hours; 75 mg/kg oral; read-out: Mean plasma/tissue concentration
endpoint: concentration at 0.25 h (ng/g)
Give bare numbers, in ng/g.

**Query** If you can, please state the reported concentration at 0.25 h value of COc1ccccc1-c1nc(CNC(=O)c2ccccc2OC(F)F)n[nH]1 [Compound 1] .
**Result** 1490

====

# assay_remarks: Biodistribution after oral administration
# Format: in vivo, Sprague-Dawley Rats
# conditions_used: male, Sprague-Dawley, rat; Pancreas; 8 hours; 75 mg/kg oral; read-out: Ratio (tissue to plasma)
# Procedure: Male Sprague-Dawley Rats (total of 6 animals) 6 to 8 weeks of age (210-227 g) was used in this biodistribution study. Compound 1 was dosed at 75 mg/kg to all animals through oral route of administration at a 10 ml/kg dose volume. […] Heart, lung, liver, kidney, stomach, small intestine, large intestine, skeletal muscle, brain, spleen, pancreas and adipose were harvested while blood was processed to plasma for bioanalytical quantification of Compound 1. […]
endpoint: Kp at 8 h
Give bare numbers.

**Query** // returns reported Kp at 8 h for input COc1ccccc1-c1nc(CNC(=O)c2ccccc2OC(F)F)n[nH]1 [Compound 1]
**Result** 1.41

====

# assay_remarks: Biodistribution after oral administration
# Assay type: in vivo, Sprague-Dawley Rats
# conditions_used: male, Sprague-Dawley, rat; Lungs; 2 hours; 75 mg/kg oral; read-out: Ratio (tissue to plasma)
# Procedure: Male Sprague-Dawley Rats (total of 6 animals) 6 to 8 weeks of age (210-227 g) was used in this biodistribution study. Compound 1 was dosed at 75 mg/kg to all animals through oral route of administration at a 10 ml/kg dose volume. […] Heart, lung, liver, kidney, stomach, small intestine, large intestine, skeletal muscle, brain, spleen, pancreas and adipose were harvested while blood was processed to plasma for bioanalytical quantification of Compound 1. […]
endpoint: Kp at 2 h
Give bare numbers.

**Query** Using the record for COc1ccccc1-c1nc(CNC(=O)c2ccccc2OC(F)F)n[nH]1 [Compound 1] , report its Kp at 2 h.
**Result** 1.28

meta.source: patent US20240342138A1
